Ref: PubChem BioAssay (NCI)

test system: DMS 114 small cell lung; test: NCI tumour cell line growth inhibition, 48 h
Where TGI equals or exceeds 3 µM, the correct label is 1 (yes); where it does not, the label is 0 (no).

{"Molecule": "O=C(N/C(=C\\c1ccc(/C=C(\\NC(=O)c2ccccc2)c2nc3cc(Cl)ccc3[nH]2)cc1)c1nc2cc(Cl)ccc2[nH]1)c1ccccc1", "Class": "1 (yes)"}

Please check the record Cc1ccc(NC(=O)CC/C(CC(=O)C(C)(C)C)=N/NC(=O)C[N+](C)(C)C)cc1C and state if its TGI is at or above 3 µM.
1 (yes)

Please check the record Cc1cc2nc3ccc(=[N+](C)C)cc-3sc2cc1N and state if its TGI is at or above 3 µM.
0 (no)

Please check the record Cc1ccc(S(=O)(=O)N2c3ccccc3[C@H]3CCC=C[C@H]32)cc1 and state if its TGI is at or above 3 µM.
1 (yes)

Please check the record Cn1c(=O)c2ccc(-c3ccc(Br)cc3)nc2n(C)c1=O and state if its TGI is at or above 3 µM.
1 (yes)

* * *

tested on: M14 melanoma; assay: NCI tumour cell line growth inhibition, 48 h; in the data active = GI50 below about 0.43 µM; inactive = the rest
// allowed return values: active, inactive

Could you check what this test reported for CCN(Cc1ccccc1Cl)c1ccc(CO)c(Cl)c1 ?
inactive

Could you check what this test reported for CN(C)CCC=C1c2ccccc2C(C)(C)c2ccccc21 ?
inactive

Could you check what this test reported for Cc1cccc2nc3cccc(C(=O)NCCNCCNCCNC(=O)c4cccc5nc6cccc(C)c6nc45)c3nc12 ?
active

Could you check what this test reported for c1ccc(Nc2nc(-c3ccccn3)cs2)nc1 ?
active

Could you check what this test reported for COC(=O)C[CH2][Ge]([CH3])([CH3])[S]c1ccccc1 ?
inactive

Could you check what this test reported for Cc1[nH]c(C(=O)Nc2ccccc2OC2CCNCC2)c(Cl)c1Cl ?
inactive

* * *

The entries below come with measured TGI values attached.
system: A498 renal; assay: NCI tumour cell line growth inhibition, 48 h

{"Compound": "c1ccc(-c2nnc(SCc3c[nH]c4ccccc34)n2-c2ccccc2)cc1", "TGI": "56 µM"}

Please give the measured TGI for this compound: CC1(C)OCC(C2OC(OC(=O)c3ccc([N+](=O)[O-])cc3)C3OC(C)(C)OC23)O1 (stereo unspecified)
> 100 µM

Please give the measured TGI for this compound: Cn1cc(S(=O)(=O)NC(=O)Nc2ccc(Cl)cc2)c2ccccc21
> 100 µM

Please give the measured TGI for this compound: CCC/C(Cl)=N\OC(=O)Nc1cccc(C(F)(F)F)c1
32 µM

Please give the measured TGI for this compound: CCN(Cc1ccccc1Cl)c1ccc(CO)c(Cl)c1
0.0672 µM

Please give the measured TGI for this compound: CC(=O)C=NCC(=O)O
> 100 µM

* * *

system: LOX IMVI melanoma; test: NCI tumour cell line growth inhibition, 48 h; in the data active = GI50 below about 0.43 µM; inactive = the rest
// allowed return values: active, inactive

Could you check what this test reported for COc1ccc(-c2nn(-c3cccc(NC(=O)Nc4ccccc4)c3)cc2-c2ccncc2)cc1Cl ?
inactive

Could you check what this test reported for CCCCCc1cc[n+](CC(=O)c2ccc([N+](=O)[O-])cc2)cc1 ?
inactive

Could you check what this test reported for COC(C(=O)C(O)C(C)O)C1Cc2cc3cc(OC4CC(OC5CC(O)C(O)C(C)O5)C(O)C(C)O4)c(C)c(O)c3c(O)c2C(=O)C1OC1CC(OC2CC(O)C(OC3CC(C)(O)C(O)C(C)O3)C(C)O2)C(O)C(C)O1 (centres undefined) ?
inactive

Could you check what this test reported for CCN(Cc1ccccc1Cl)c1ccc(CO)c(Cl)c1 ?
inactive

Could you check what this test reported for C=C1CCC2C3(C)COC(c4c(OC)cccc4OC)OC3CCC2(C)C1C/C=C1/C(=O)OCC1O (centres undefined) ?
inactive
